- MEASUREMENT_PROTOCOL: Quantitative High-Throughput drug screen in 47 multiple myeloma cell lines against the NCATS MIPE library collection: OPM1_PLB cell viability assay (AID 1918989); note: nearly all actives have a fitted effect of over 40% in size
- CONDITION_DESCRIPTION: CellTiter-Glo, 48 h; series mostly up to 45.8 µM
- Text: PI: Beverly A. Mock Ph.D. Laboratory of Cancer Biology and Genetics, Center for Cancer Research, National Cancer Institute, National Institute of Health, Bethesda, Maryland […] 5; Detector; 425V; Luminescence; Viewlux PerkinElmer. […] 1. […] Briefly, the corresponding myeloma cell lines were screened in 1,536-well plates with 500 cells, 5-uL per well for inhibition of cell viability (assessed by measuring ATP levels with CellTiterGlo). […]
Results filed as inconclusive are left out. Calls of active or inactive are those of the source. Calls come from the whole dose curve; as a rule, active = well fitted cell-killing curve with a large enough effect; inconclusive = small, poorly fitted or top-dose-only effect, or effect the other way; inactive = no such curve, though single readings can be large or run the other way.
Outcome codes: active, inactive

1) CC(C)(C)[C@]1(O)C[C@@H]2OC(=O)C[C@@]23C(=O)O[C@@H]2OC(=O)[C@H](O)C213 (some centres not stated) ... inactive
2) CCOP(=O)(OCC)C(C)NC(=O)N(CCCl)N=O (configuration not stated) ... inactive
3) Cc1ccccc1-n1c(Cn2ncc3c(N)ncnc32)nc2cccc(C)c2c1=O ... active
4) CCc1c(C(=O)C(N)=O)c2c(OCC(=O)O)cccc2n1Cc1ccccc1 ... inactive
5) COC[C@H]1OC(=O)c2coc3c2[C@@]1(C)C1=C(C3=O)[C@@H]2CC[C@H](O)[C@@]2(C)C[C@@H]1OC(C)=O ... active
6) c1cc2c(cc1[C@H]1OC[C@H]3[C@H]1CO[C@H]3c1ccc3c(c1)OCO3)OCO2 ... inactive
7) NC1CC1c1ccccc1 (configuration not stated) ... inactive
8) CCN1C[C@]2(OC(=O)c3ccccc3NC(C)=O)CC[C@H](OC)[C@@]34[C@H]5CC6[C@@H](OC)C[C@](O)(C(C[C@@H]23)[C@@H]14)[C@@]5(O)[C@@H]6OC ... inactive
9) CC1(N2CCC(n3c([C@@H]4CCCNC4)nc4ccccc43)CC2)CCCCCCC1 ... active
10) O=C(NCC1CCOCC1)c1cnc(Nc2ccc(Cl)cc2Cl)nc1C(F)(F)F ... inactive
11) COc1ccc(N(C(=O)Oc2c(C)cccc2C)c2ccnc(Nc3ccc(N4CCN(C)CC4)cc3)n2)c(OC)c1 ... active
12) O=S(=O)(CC1CS1)c1ccc(Oc2ccccc2)cc1 (configuration not stated) ... active

====

- MEASUREMENT_PROTOCOL: qHTS of pediatric cancer cell lines to identify multiple opportunities for drug repurposing: Primary screen for Rh30 cells (AID 1347107); note: nearly all actives have a fitted effect of over 75% in size
- CONDITION_DESCRIPTION: Rh30 rhabdomyosarcoma viability, CellTiter-Glo luminescence, 48 h; series mostly up to 46 µM
Records with an inconclusive call do not appear. Activity calls are given as the source filed them. Calls come from the whole dose curve; as a rule, active = well fitted cell-killing curve with a large enough effect; inconclusive = small, poorly fitted or top-dose-only effect; inactive = no such curve, though single readings can be large or run the other way.
Outcome codes: T for active, F for inactive

1) COCCOCCO ... F
2) CC(C)(O)C=CC(=O)[C@](C)(O)[C@H]1[C@H](O)C[C@]2(C)[C@@H]3CC=C4[C@@H](C=C(O)C(=O)C4(C)C)[C@]3(C)C(=O)C[C@@]12C ... T
3) O=S(=O)(O)C(F)(F)C(F)(F)C(F)(F)C(F)(F)F ... F
4) COc1ccc2c(c1)[C@]13CCCCC1C(C2)N(C)CC3 (stereo partly drawn) ... F
5) C[C@](O)(COc1ccc(C#N)cc1)C(=O)Nc1ccc(C#N)c(C(F)(F)F)c1 ... F
6) CCOC(=O)Nc1ccc(NCc2ccc(F)cc2)cc1N ... F
7) CCCCOC(=O)c1ccccc1C(=O)OCc1ccccc1 ... F
8) COC(=O)c1cncn1C(C)c1ccccc1 (stereo not drawn) ... F
9) C1=C2CCCN[C@H]2[C@@H]2C[C@H]1[C@@H]1CCCCN1C2 ... F
10) CC(=O)O[C@@]12CO[C@H]1C[C@H](O)[C@@]1(C)C(=O)[C@H](O)C3=C(C)[C@@H](O)C[C@@](O)([C@@H](OC(=O)c4ccccc4)[C@@H]21)C3(C)C ... F
11) C[C@H]1CCCC=CC2C[C@H](O)C[C@@H]2[C@H](O)C=CC(=O)O1 (stereo partly drawn) ... F
12) COc1ccc2c(c[n+](C)c3c4cc5c(cc4ccc23)OCO5)c1OC ... T
13) CC(=CCCC1=CCC(C2=CC(=O)OC2O)OC1O)CCC1=C(C)CCCC1(C)C (stereo not drawn) ... F
14) CN[C@@H](C)[C@H](O)c1ccccc1 ... F
15) CC(C)NCC(O)c1ccc([N+](=O)[O-])cc1 (stereo not drawn) ... F
16) CC(=O)OCC1=C(C(=O)O)N2C(=O)[C@@H](N)[C@@H]2SC1 ... F
17) C[C@]12CC[C@@H]3[C@@H](CCC4=CC(=O)CC[C@@H]43)[C@@H]1CC[C@@H]2OC(=O)CCc1ccccc1 ... F
18) O=S(=O)(O)C(F)(F)C(F)(F)C(F)(F)C(F)(F)C(F)(F)C(F)(F)C(F)(F)C(F)(F)F ... F
19) O=[N+]([O-])c1ccc([As](=O)(O)O)cc1 ... F
20) CC[C@H]1C=CC=CC[C@@H](C)[C@H](O)[C@@](C)(O)C(=O)[C@@H](C)[C@H](O)[C@@H](C)C(=O)[C@@H](C)[C@H](O)[C@@H](C)C=CC(=O)O[C@@H]2[C@@H](C)[C@H](CC1)O[C@]1(CC[C@H](C)[C@H](C[C@@H](C)O)O1)[C@H]2C ... F
21) O=[N+]([O-])c1ncc[nH]1 ... F
22) NC1CC1c1ccccc1 (stereo not drawn) ... F
23) COc1ccc(CC2NCCc3cc(OC)c(OC)cc32)cc1OC (stereo not drawn) ... F
24) CS(=O)(=O)c1ccc(C(=O)C2C(=O)CCCC2=O)c([N+](=O)[O-])c1 ... F
25) Oc1ccc2c3c1O[C@H]1c4[nH]c5c(c4C[C@@]4(O)[C@@H](C2)N(CC2CC2)CC[C@]314)C[C@@]1(O)[C@H]2Cc3ccc(O)c4c3[C@@]1(CCN2CC1CC1)[C@H]5O4 ... F
26) CC1=C(C(=O)O)N2C(=O)[C@@H](N)[C@H]2SC1 ... F
27) CCO/N=C(\CC)C1=C(O)CC(c2c(C)cc(C)cc2C)CC1=O (stereo not drawn) ... F
28) CC(N[C@H]1C[C@H]1c1ccccc1)c1ccc2c(c1)OCCO2 (stereo partly drawn) ... F
29) CN[C@@H]1Cc2cccc3[nH]c(=O)n(c23)C1 ... F
30) CCOCCOC(C)=O ... F
31) O=S(=O)(F)Cc1ccccc1 ... F
32) S=C(SSC(=S)N1CCCCC1)N1CCCCC1 ... F
33) CC(Cc1ccc(O)cc1)NCC(O)c1cc(O)cc(O)c1 (stereo not drawn) ... F
34) O=C(Oc1ccc([N+](=O)[O-])cc1)N1CCN(Cc2cccc(Oc3ccccc3)c2)CC1 ... F
35) c1cc2ccc3cccc4ccc(c1)c2c34 ... F
36) Cc1c(N)nc([C@H](CC(N)=O)NC[C@@H](N)C(N)=O)nc1C(=O)N[C@H](C(=O)N[C@@H](C)[C@H](O)[C@@H](C)C(=O)N[C@@H](C(=O)NCCc1nc(-c2nc(C(=O)NCCC[S+](C)C)cs2)cs1)[C@@H](C)O)C(O[C@H]1O[C@H](CO)[C@H](O)[C@@H](O)[C@@H]1O[C@H]1O[C@H](CO)[C@@H](O)[C@H](OC(N)=O)[C@H]1O)c1cnc[nH]1 (stereo partly drawn) ... F
37) C[C@@H]1[C@H](O)[C@@H](C)C=CC=CCCC=CC=CC=CC=C[C@H](O[C@H]2O[C@@H](C)[C@H](O)[C@@H](N)[C@@H]2O)CC2O[C@](O)(C[C@@H](O)[C@H](O)CC[C@@H](O)C[C@@H](O)C[C@@H](O)CC(=O)O[C@H]1C)C[C@H](O)[C@H]2C(=O)O ... F
38) COc1cc([C@@H]2c3cc4c(cc3[C@@H](O)C3COC(=O)C32)OCO4)cc(OC)c1O (stereo partly drawn) ... F

====

- Tested on: CP315
- MEASUREMENT_PROTOCOL: qHTS profiling for inhibitors of Plasmodium falciparum proliferation (AID 504749); note: nearly all actives have a fitted effect of over 60% in size
- CONDITION_DESCRIPTION: P. falciparum in erythrocytes, SYBR Green DNA, 72 h; series mostly up to 28.7 µM
- Protocol: NIH National Institute of Allergy and Infectious Diseases [NIAID] NIH Chemical Genomics Center [NCGC] […] Because mature erythrocytes lack DNA, only Plasmodium-derived DNA is detected. NCGC Assay Protocol Summary: The SYBR Green viability assay was adapted from a method described previously (Plouffe et al., 2008). […] The following morning, fluorescence intensity at 485(14) nm excitation and 535(25) nm emission wavelengths was measured on an EnVision (Perkin Elmer) plate reader. […]
Inconclusive results are not listed. Active and inactive are the calls of the source. Calls follow the shape of the dose curve; as a rule, active = well fitted inhibition curve with a large enough effect; inconclusive = small, poorly fitted or top-dose-only effect; inactive = flat fitted curve, though single readings scatter.
Outcome codes: active, inactive

1. CN1C2CCC1CC(OC(=O)c1cc(Cl)cc(Cl)c1)C2 (stereo not given) ... inactive
2. C=CCN1CC[C@]23CCCCC2[C@H]1Cc1ccc(O)cc13 (stereo not given in full) ... inactive
3. CCCCc1ccc(C(=O)O)nc1 ... inactive
4. O=[N+]([O-])c1ccc([As](=O)(O)O)cc1 ... active
5. CC(C)NC(C)Cc1ccc(I)cc1 (stereo not given) ... inactive
6. O=C(O)C(Cl)Cl ... inactive
7. COC(=O)[C@@H](N)CCCN=C(N)N[N+](=O)[O-] ... inactive
8. COC(C)(C)CCCC(C)C/C=C/C(C)=C/C(=O)OC(C)C (stereo not given) ... inactive
9. NC1=NC(=O)N2CC12 (stereo not given) ... inactive
10. CCCCCCCCCC(CC)c1ccc(S(=O)(=O)O)cc1 (stereo not given) ... inactive
11. Cc1cc(O)ccc1Cl ... inactive
12. CC[N+]1(CCOC(=O)C(O)(c2ccccc2)c2ccccc2)CCCCC1 ... inactive
13. COC(=O)c1cncn1C(C)c1ccccc1 (stereo not given) ... inactive
14. C1CCC(NC2CCCCC2)CC1 ... inactive
15. C#CC1(O)CCC2C3CCC4=CC(=O)CCC4(C)C3CCC21C (stereo not given) ... inactive

The reported numbers originate from PubChem BioAssay (NCATS).
